TESTED ON: hEP4 (Homo sapiens)
Construct: expressed in transfected cells; host or cells: HEK-293 (membrane fraction)
Sequence (P35408 whole entry): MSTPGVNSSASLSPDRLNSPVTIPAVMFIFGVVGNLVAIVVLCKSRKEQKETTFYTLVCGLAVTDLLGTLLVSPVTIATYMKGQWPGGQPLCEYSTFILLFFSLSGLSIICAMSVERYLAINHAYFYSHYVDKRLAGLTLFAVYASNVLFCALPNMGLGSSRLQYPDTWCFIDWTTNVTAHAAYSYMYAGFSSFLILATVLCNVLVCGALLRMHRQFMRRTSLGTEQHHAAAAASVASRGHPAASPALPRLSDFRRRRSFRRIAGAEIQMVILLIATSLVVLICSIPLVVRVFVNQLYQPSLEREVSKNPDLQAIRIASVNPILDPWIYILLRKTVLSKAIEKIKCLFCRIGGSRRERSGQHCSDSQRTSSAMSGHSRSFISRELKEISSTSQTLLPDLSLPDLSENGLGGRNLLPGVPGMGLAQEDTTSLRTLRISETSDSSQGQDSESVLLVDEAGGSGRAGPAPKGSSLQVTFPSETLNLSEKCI
ASSAY TEXT: Radioligand binding, HEK-293 cells stably expressing EP4 receptor
SETTINGS: competition vs 5 nM [3H]-PGE2
REPORTED PROPERTY: IC50

Task: Name the recorded IC50 of the item COC(=O)CCC/C=C\CN1C(=O)CCCCC1CCC(=O)Cc1ccccc1 (stereo not shown) in your answer.
Output: > 10 µM

* * *

TESTED ON: hTP (Homo sapiens)
Construct: expressed in transfected cells; host or cells: HEK-293(EBNA)
Sequence (P21731 whole entry): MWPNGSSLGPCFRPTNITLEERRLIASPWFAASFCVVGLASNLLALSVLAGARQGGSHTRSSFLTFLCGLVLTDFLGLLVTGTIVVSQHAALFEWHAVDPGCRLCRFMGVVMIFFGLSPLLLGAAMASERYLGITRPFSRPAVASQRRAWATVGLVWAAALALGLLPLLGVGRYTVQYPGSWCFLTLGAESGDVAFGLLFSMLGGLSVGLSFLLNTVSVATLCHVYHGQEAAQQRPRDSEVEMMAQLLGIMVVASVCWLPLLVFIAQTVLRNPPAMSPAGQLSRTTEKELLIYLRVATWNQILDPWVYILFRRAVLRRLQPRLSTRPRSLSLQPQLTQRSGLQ
ASSAY TEXT: FLIPR calcium signal, HEK-293(EBNA) cells
Type: cell-based
SETTINGS: read-out: Functional Data (EC50 in nM) hTP
log10 EC50 values for the molecules below.
Answers are given as log10 of EC50 in nM.

Take a look at these entries with their results.
{"MOLECULE": "O=C(O)CCCC#CCN1C(=O)CCCCC1CCC(=O)Cc1ccccc1 (centres unmarked)", "log10 EC50": 1.61}
{"MOLECULE": "O=C(O)CCC/C=C\\CN1C(=O)CCCCC1C=CC(O)Cc1ccccc1 (centres unmarked)", "log10 EC50": 2.34}
{"MOLECULE": "O=C(O)CCCC#CCN1C(=O)CCCCC1CCC(O)Cc1ccccc1 (centres unmarked)", "log10 EC50": 2.05}
{"MOLECULE": "O=C(O)CCCC#CCN1C(=O)CCCCC1C=CC(O)Cc1ccccc1 (centres unmarked)", "log10 EC50": 2.44}

For the next question, use this molecule.
Task: Please report log10 EC50 with hTP (Homo sapiens) for item O=C(O)CCCCCCN1C(=O)CCCCC1CCC(O)Cc1ccccc1 (centres unmarked) .
Output: 2.74

* * *

TESTED ON: hEP4/Gqs5 (Homo sapiens)
Construct: expressed in transfected cells; host or cells: HEK-293(EBNA)
Sequence (P35408 whole entry): as the sequence (P35408 whole entry) above
ASSAY TEXT: FLIPR calcium signal, HEK-293(EBNA) cells
Assay type: cell-based
SETTINGS: read-out: Functional Data (EC50 in nM) hEP4
EC50 values for the compounds below.
I only need the number, in nM, no unit after it.

Take a look at these entries with their results.
{"COMPOUND": "COC(=O)CCCCCCN1C(=O)CCCCC1CCC(O)Cc1ccccc1 (stereo not shown)", "TESTED ON": "hEP4/Gqs5 (Homo sapiens)", "RESULT UNITS": "nM", "EC50": 3280}
{"COMPOUND": "O=C(O)CCCCCCN1C(=O)CCCCC1CCC(O)Cc1ccccc1 (stereo not shown)", "TESTED ON": "hEP4/Gqs5 (Homo sapiens)", "RESULT UNITS": "nM", "EC50": 451}
{"COMPOUND": "COC(=O)CCC/C=C\\CN1C(=O)CCCCC1CCC(=O)Cc1ccccc1 (stereo not shown)", "TESTED ON": "hEP4/Gqs5 (Homo sapiens)", "RESULT UNITS": "nM", "EC50": 13300}
{"COMPOUND": "O=C(O)CCCC#CCN1C(=O)CCCCC1CCC(O)Cc1ccccc1 (stereo not shown)", "TESTED ON": "hEP4/Gqs5 (Homo sapiens)", "RESULT UNITS": "nM", "EC50": 2000}
{"COMPOUND": "COC(=O)CCC/C=C\\CN1C(=O)CCCCC1CCC(O)Cc1ccccc1 (stereo not shown)", "TESTED ON": "hEP4/Gqs5 (Homo sapiens)", "RESULT UNITS": "nM", "EC50": 2140}

For the next question, use this compound.
Task: Name the recorded EC50 of the item O=C(O)CCC/C=C\CN1C(=O)CCCCC1CCC(O)Cc1ccccc1 (stereo not shown) in your answer.
Output: 116

From: patent US7326698B2
